Assay: Tolerability in CD1 mice: body and organ weight (Example 25)
Type: in vivo
Conditions: 50 mg/kg s.c. twice per week for 6 weeks, end of study
In the oligonucleotide strings, read from the 5' end, every base follows the letter of its sugar. An asterisk marks phosphorothioate; unmarked linkages are phosphodiester. Other units and linkages are bracketed, terminal groups are in braces. A string of capitals states the bases alone. e = 2'-O-(2-methoxyethyl) (MOE); [5mC] = 5-methylcytosine; d = 2'-deoxy (DNA)
Spleen weight as percentage of body weight overview
Test readout: Spleen weight as percentage of body weight (%)

{"Substance": "ISIS 445505: microwalk gapmer of Table 51 (antisense e[5mC]*eG*eG*e[5mC]*eA*eT*dT*dG*dG*dT*dG*d[5mC]*dA*d[5mC]*eA*eG*eT*eT*eT*e[5mC])", "Endpoint result": 0.5}
{"Substance": "ISIS 445504: microwalk gapmer of Table 51 (antisense eG*eG*e[5mC]*eA*eT*eT*dG*dG*dT*dG*d[5mC]*dA*d[5mC]*dA*eG*eT*eT*eT*e[5mC]*eT)", "Endpoint result": 0.4}
{"Substance": "ISIS 445530: microwalk gapmer of Table 51 (antisense eG*e[5mC]*eA*eT*eT*dG*dG*dT*dG*d[5mC]*dA*d[5mC]*dA*eG*eT*eT*eT*e[5mC])", "Endpoint result": 0.5}
